Assay: Pharmacokinetics in rats after i.v. dosing: plasma and tissue content
Type: in vivo
Settings: rat, liver, iv, 3.6 mg/kg, rat 1, 4 h post dose, 3.6 mg/kg i.v., liposomal; read-out: Compound Content in Liver

compound: Brc1ccc2[nH]cc([C@H]3Nc4ccc(C#CCN5CCCCC5)cc4[C@H]4OCC[C@@H]34)c2c1 (relative stereo) [drawing 54]
concentration at 4 h [ng/g]: 3200

* * *

Test: Pharmacokinetics in rats after i.v. dosing: plasma and tissue content
Assay type: in vivo
Conditions: rat, kidney, iv, 3.6 mg/kg, rat 1, 4 h post dose, 3.6 mg/kg i.v., liposomal; read-out: Compound Content in Kidney
Method: The pharmacokinetics of the compound were evaluated in two rats after dosing at 3.6 mg/kg i.v using a liposomal formulation (1.8 mg/mL). […] Maximum concentrations of approximately 450 ng/ml were attained in plasma. […] Data on the accumulation of the compound in various tissues of the rats is contained in the table below.
measured_parameter: concentration at 4 h (ng/g)

molecule: Brc1ccc2[nH]cc([C@H]3Nc4ccc(C#CCN5CCCCC5)cc4[C@H]4OCC[C@@H]34)c2c1 (relative stereo) [drawing 54]
measured_parameter: concentration at 4 h
readout_number: 1300
